Where do the numbers come from? From patent US10195201B2.

# experimental system: Rhesus PDE2A3 (Macaca mulatta)
# Sequence (B3VTJ2 1-941): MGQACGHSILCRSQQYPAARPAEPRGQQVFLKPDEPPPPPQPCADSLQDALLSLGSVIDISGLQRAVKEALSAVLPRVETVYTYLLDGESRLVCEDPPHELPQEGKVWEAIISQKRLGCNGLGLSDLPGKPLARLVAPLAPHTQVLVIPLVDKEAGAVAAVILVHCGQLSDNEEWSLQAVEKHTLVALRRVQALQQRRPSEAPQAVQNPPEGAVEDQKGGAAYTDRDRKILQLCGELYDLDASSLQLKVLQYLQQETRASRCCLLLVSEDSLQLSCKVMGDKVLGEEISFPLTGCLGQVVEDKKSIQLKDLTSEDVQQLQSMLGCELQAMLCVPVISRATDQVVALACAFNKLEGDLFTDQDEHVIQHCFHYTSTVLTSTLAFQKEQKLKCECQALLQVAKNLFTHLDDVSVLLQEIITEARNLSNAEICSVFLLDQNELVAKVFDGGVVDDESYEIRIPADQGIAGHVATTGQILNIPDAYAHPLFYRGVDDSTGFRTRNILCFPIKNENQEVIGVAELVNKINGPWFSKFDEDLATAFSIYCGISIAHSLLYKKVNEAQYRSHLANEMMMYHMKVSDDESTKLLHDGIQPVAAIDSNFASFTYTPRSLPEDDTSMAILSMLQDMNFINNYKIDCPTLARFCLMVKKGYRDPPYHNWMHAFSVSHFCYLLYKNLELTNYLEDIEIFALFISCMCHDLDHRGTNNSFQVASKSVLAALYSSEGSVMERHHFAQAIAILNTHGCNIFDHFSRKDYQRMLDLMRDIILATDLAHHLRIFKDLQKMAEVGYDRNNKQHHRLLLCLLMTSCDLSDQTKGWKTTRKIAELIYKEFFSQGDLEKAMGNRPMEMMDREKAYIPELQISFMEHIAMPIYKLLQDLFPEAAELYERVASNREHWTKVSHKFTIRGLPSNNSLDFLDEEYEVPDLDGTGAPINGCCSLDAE
# protocol: PDE2 fluorescence polarization (IMAP FP) inhibition assay, rhesus enzyme
# Format: biochemical, rhesus macaque
# condition summary: LabA; read-out: rhPDE2 Ki (nM) LabA
readout name: Ki (nM)

molecule	experimental system	Ki (nM)
Cc1nc(-c2cn(C(C)c3ccc(C(F)(F)F)cc3)cn2)cc(=O)[nH]1 (single isomer, unassigned) [Example 16]	Rhesus PDE2A3 (Macaca mulatta)	340

1. Cc1nc(-c2cn([C@H](C)c3ccc(C(F)(F)F)cc3F)cn2)cc(=O)[nH]1 (single isomer, unassigned) [Example 14]
2. Cc1nc(-c2nc(C(C)c3ccc(C(F)(F)F)cc3)cs2)cc(=O)[nH]1 (stereo not shown)
3. Cc1nc(-c2cncc(C(C)c3ccc(C(F)(F)F)cc3)n2)cc(=O)[nH]1 (stereo not shown)
Q) Sequence the entries by Ki, beginning with the highest number. Answer by writing out the labels in the requested order.
A) 3, 2, 1
